test: Antiproliferative activity against mouse GL26 cells assessed as inhibition of cell growth measured after 48 hrs by MTT assay; type: functional, cell-based; conditions: GL26, 48 h
Answer each item with its documented pIC50.
Give bare numbers, as −log10 of the molar value.

Would you be so kind as to report pIC50 for each listed record?
1. C#CCN(C)CCCOc1ccc(N(C)C(=O)c2cc(C(C)C)c(O)cc2O)cc1Cl
2. C#CCN(C)CCCOc1ccc(N(CCC)C(=O)c2cc(C(C)C)c(O)cc2O)cc1Cl
3. C#CCN(C)CCCOc1ccc(N(CC)C(=O)c2cc(C(C)C)c(O)cc2O)cc1Cl

Reply:
6.14
5.07
6.31

---

tested on: A 172; experiment: Antiproliferative activity against human A-172 cells assessed as inhibition of cell growth measured after 72 hrs by CCK8 method; type: functional, cell-based; details: A 172, 72 h
endpoint.label: pIC50
One number for each entry, as −log10 of the molar value.

>>> endpoint_value("C#CCN(C)CCCOc1ccc(N(CC)C(=O)c2cc(C(C)C)c(O)cc2O)cc1Cl")
6.05

Kindly review the next compound as well.
// pIC50 lookup, compound = "C#CCN(C)CCCOc1ccc(N(C)C(=O)c2cc(C(C)C)c(O)cc2O)cc1Cl" , result: 5.48

---

target: Amine oxidase [flavin-containing] A (Mus musculus); assay: Inhibition of MAO A in mouse GL26 cells preincubated for 20 mins followed by 14C-labeled 5-hydroxytryptamine addition and measured after 20 mins by scintillation counter analysis
endpoint.label: IC50 (µM)
Give bare numbers, in µM.

>>> endpoint_value("C#CCN(C)CCCOc1cccc(N(CCC)C(=O)c2cc(C(C)C)c(O)cc2O)c1Cl")
0.88

Kindly review the next compound as well.
// IC50 lookup, compound = "C#CCN(C)CCCOc1ccc(N(CCC)C(=O)c2cc(C(C)C)c(O)cc2O)cc1Cl" , result: 3.86

---

Molecular target: Amine oxidase [flavin-containing] A (Mus musculus)
Sequence (Q64133 whole entry): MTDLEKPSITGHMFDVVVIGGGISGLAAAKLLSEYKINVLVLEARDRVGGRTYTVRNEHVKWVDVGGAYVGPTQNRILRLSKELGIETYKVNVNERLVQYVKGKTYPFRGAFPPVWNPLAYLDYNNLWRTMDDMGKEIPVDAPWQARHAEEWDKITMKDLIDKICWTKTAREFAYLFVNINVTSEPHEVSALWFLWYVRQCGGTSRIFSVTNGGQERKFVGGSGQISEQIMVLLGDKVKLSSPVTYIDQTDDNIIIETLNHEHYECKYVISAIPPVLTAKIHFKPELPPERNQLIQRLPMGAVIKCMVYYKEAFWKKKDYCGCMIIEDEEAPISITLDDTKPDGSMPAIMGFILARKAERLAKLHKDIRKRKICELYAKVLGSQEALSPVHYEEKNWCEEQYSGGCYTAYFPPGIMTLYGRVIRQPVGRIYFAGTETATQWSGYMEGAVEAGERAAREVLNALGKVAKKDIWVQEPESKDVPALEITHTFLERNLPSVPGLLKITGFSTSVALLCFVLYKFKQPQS
Assay: Inhibition of MAO A in mouse GL26 cells preincubated for 20 mins followed by 14C-labeled 5-hydroxytryptamine addition and measured after 20 mins by scintillation counter analysis
endpoint.label: IC50

Consider the following illustrative entries.
>>> endpoint_value("C#CCN(C)CCCOc1cccc(N(C)C(=O)c2cc(C(C)C)c(O)cc2O)c1Cl")
"> 10 µM"
>>> endpoint_value("C#CCN(C)CCCOc1ccc(NC(=O)c2cc(C(C)C)c(O)cc2O)cc1Cl")
"0.11 µM"
>>> endpoint_value("C#CCN(C)CCCOc1cc(NC(=O)c2cc(C(C)C)c(O)cc2O)ccc1Cl")
"2.36 µM"
>>> endpoint_value("C#CCN(C)CCCOc1cc(N(CC)C(=O)c2cc(C(C)C)c(O)cc2O)ccc1Cl")
"> 10 µM"

// IC50 lookup, molecule = "C#CCN(C)CCCOc1ccc(N(CC)C(=O)c2cc(C(C)C)c(O)cc2O)cc1Cl" , result: 4.58 µM
